Test system: HEK-293T
assay_protocol: Multiplex assay against HEK293T
Type: toxicity, cell-based
measurement_parameters: human, 12 h, 1 µM, compound concentration 1 uM, replicate 2
outcome_measure: Population Mitotic Cells (%)
Report the value in % with no unit label.

Below are worked cases with known answers.
Cc1c(Nc2ccc(S(=O)(=O)N3CCN(C)CC3)cc2F)nc2ccc(Nc3cnn(C4CC4)c3)cn2c1=O    88
CCCCN(CC)c1nc(C)nc2c1c(C)cn2-c1c(C)cc(C)cc1C.Cl    88
Cc1c(P(=S)(c2ccccc2)c2ccccc2)n2ccccc2[n+]1C/C=C/c1ccccc1.[Br-]    13
CN(c1cc(C(F)(F)F)nc(OCCC(=O)O)n1)c1cccc2c1CCC2    87
CC(C)C[C@H](NC(=O)[C@H](Cc1ccccc1)NC(=O)CNC(=O)CNC(=O)[C@@H](N)Cc1ccc(O)cc1)C(=O)O    90
CCCc1cc(C)[nH]c(=O)c1CNC(=O)c1cc(-c2ccc(N3CCN(C(C)C)CC3)nc2)cc2c1cnn2C(C)C    48

## Input What value of measured Population Mitotic Cells (%) is listed for CCOC(=O)CCNc1cc(N2CCc3ccccc3CC2)nc(-c2ccccn2)n1 ?
## Output 91

## Input What value of measured Population Mitotic Cells (%) is listed for CN1C(=O)[C@@H](NC(=O)c2cc3ccccc3[nH]2)N=C(c2ccccc2)c2ccccc21 [DEVAZEPIDE] ?
## Output 87

## Input What value of measured Population Mitotic Cells (%) is listed for Cc1ccc(NC(=O)Nc2cc(C(F)(F)F)ccc2F)cc1Nc1ccc2c(c1)NC(=O)/C2=C\c1ccc[nH]1 ?
## Output 97

###

System: HEK-293T
assay_protocol: Multiplex assay against HEK293T
Format: toxicity, cell-based
measurement_parameters: human, 24 h, 10 µM, compound concentration 10 uM, replicate 2
Population Mitotic Cells (%) overview
Report the value in % with no unit label.

Below are worked cases with known answers.
CC(C)c1cc(Nc2nc(N3CCC[C@H](N)C3)ncc2C(N)=O)cc(C(C)C)n1    10
Cl.Cn1c2c(c3ccc(Cl)c(Cl)c31)C(C#N)C1(CCNCC1)NC2=O (centres undefined)    87
Cc1c(Nc2ccc(S(=O)(=O)N3CCN(C)CC3)cc2F)nc2ccc(Nc3cnn(C4CC4)c3)cn2c1=O    100
Oc1cccc(-c2nc(N3CCOCC3)c3oc4ncccc4c3n2)c1    34
Cc1ccc(NC(=O)Nc2cc(C(F)(F)F)ccc2F)cc1Nc1ccc2c(c1)NC(=O)/C2=C\c1ccc[nH]1    100
CN(c1cc(C(F)(F)F)nc(OCCC(=O)O)n1)c1cccc2c1CCC2    90
c1ccc(-c2oc3ncnc(NC[C@@H]4CCCO4)c3c2-c2ccccc2)cc1    56
CC(C)C[C@H](NC(=O)[C@H](Cc1ccccc1)NC(=O)CNC(=O)CNC(=O)[C@@H](N)Cc1ccc(O)cc1)C(=O)O    92

Could you now consider this next compound?
## Input What value of measured Population Mitotic Cells (%) is listed for CCCCN(CC)c1nc(C)nc2c1c(C)cn2-c1c(C)cc(C)cc1C.Cl ?
## Output 70

###

Tested on: Fibroblast
assay_protocol: Multiplex assay against human fibroblast
Type: toxicity, cell-based
measurement_parameters: 24 h, 10 µM, compound concentration 10 uM, replicate 2
Population Apoptotic (%) overview
Report the value in % with no unit label.

Below are worked cases with known answers.
Cc1c(Nc2ccc(S(=O)(=O)N3CCN(C)CC3)cc2F)nc2ccc(Nc3cnn(C4CC4)c3)cn2c1=O    0
CN(c1cc(C(F)(F)F)nc(OCCC(=O)O)n1)c1cccc2c1CCC2    0
Cc1c(P(=S)(c2ccccc2)c2ccccc2)n2ccccc2[n+]1C/C=C/c1ccccc1.[Br-]    100

Could you now consider this next compound?
## Input For the record CC[C@@]1(O)C(=O)OCc2c1cc1n(c2=O)Cc2cc3ccccc3nc2-1 , what value of Population Apoptotic (%) is listed for Fibroblast?
## Output 100

###

Growth Rate overview
Test system: U2OS
assay_protocol: Incucyte cell viability with U2OS; note: filed as whole numbers so only -1 and 0 and 1 occur
Format: toxicity, cell-based
measurement_parameters: human, 12 h, 10 µM, compound concentration 10 uM, replicate number 1, timepoint 12 hours

CCC(=O)NC1Cc2ccccc2C(c2ccccc2)C1 (stereo not given)    1
CCc1cc(Nc2nccc(-c3c(-c4ccc(OC)c(C(=O)Nc5c(F)cccc5F)c4)nc4ccccn34)n2)c(OC)cc1N1CCC(N2CCN(S(C)(=O)=O)CC2)CC1    1
CC(C)c1cc(Nc2nc(N3CCC[C@H](N)C3)ncc2C(N)=O)cc(C(C)C)n1    0
CC(C)(O)c1cncc(-c2nc3ccc(F)cc3n2C2CC2)c1 [MSD-CYP11B2]    0

Could you now consider this next compound?
## Input What value of measured Growth Rate is listed for O=C1c2ccc(Nc3ccc(F)cc3F)cc2CCc2ccc(OC[C@H](O)CO)cc21 [Skepinone-L] ?
## Output 0

###

Tested on: Fibroblast
assay_protocol: Multiplex assay against human fibroblast
Type: toxicity, cell-based
measurement_parameters: 48 h, 1 µM, compound concentration 1 uM, replicate 1
Use Y when the recorded Population Healthy Nuclei (%) is no lower than 50%; use N when it is lower.

Cl.NC[C@@H]1O[C@H](C23CC4CC(CC(C4)C2)C3)Cc2c1ccc(O)c2O    Y
CN(c1cc(C(F)(F)F)nc(OCCC(=O)O)n1)c1cccc2c1CCC2    N
CN1C(=O)[C@@H](NC(=O)c2cc3ccccc3[nH]2)N=C(c2ccccc2)c2ccccc21 [DEVAZEPIDE]    N

## Input Is Population Healthy Nuclei (%) at least 50%? Consider CCCCN(CC)c1nc(C)nc2c1c(C)cn2-c1c(C)cc(C)cc1C.Cl
## Output Y

## Input Is Population Healthy Nuclei (%) at least 50%? Consider N#Cc1cccc(C(=O)Nc2cc(-c3ccccc3)nn2-c2ccccc2)c1
## Output N

## Input Is Population Healthy Nuclei (%) at least 50%? Consider N#CCNC(=O)c1ccc(-c2ccnc(Nc3ccc(N4CCOCC4)cc3)n2)cc1
## Output Y

## Input Is Population Healthy Nuclei (%) at least 50%? Consider Cc1c(P(=S)(c2ccccc2)c2ccccc2)n2ccccc2[n+]1C/C=C/c1ccccc1.[Br-]
## Output Y

###

Test system: HEK-293T
assay_protocol: Multiplex assay against HEK293T
Format: toxicity, cell-based
measurement_parameters: human, 48 h, 1 µM, compound concentration 1 uM, replicate 1
Use class 1 when the recorded Population Normal (%) is no lower than 80%; use class 0 when it is lower.

Example entries and their recorded answers appear below.
CC(C)c1cc(Nc2nc(N3CCC[C@H](N)C3)ncc2C(N)=O)cc(C(C)C)n1    class 1
CN1C(=O)[C@@H](NC(=O)c2cc3ccccc3[nH]2)N=C(c2ccccc2)c2ccccc21 [DEVAZEPIDE]    class 1
Cc1c(P(=S)(c2ccccc2)c2ccccc2)n2ccccc2[n+]1C/C=C/c1ccccc1.[Br-]    class 0

## Input Is Population Normal (%) at least 80%? Consider CC(/C=C1\SC(=S)N(CCCC(=O)Nc2ccc(C(=O)O)c(O)c2)C1=O)=C\c1ccccc1
## Output class 1

## Input Is Population Normal (%) at least 80%? Consider Cc1ccc(S(=O)(=O)NC2c3ccccc3Oc3ccccc32)cc1
## Output class 1

## Input Is Population Normal (%) at least 80%? Consider CC(Cc1ccc(O)c(O)c1)C(C)Cc1ccc(O)c(O)c1 (centres undefined) [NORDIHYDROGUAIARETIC ACID]
## Output class 1

## Input Is Population Normal (%) at least 80%? Consider N#CCNC(=O)c1ccc(-c2ccnc(Nc3ccc(N4CCOCC4)cc3)n2)cc1
## Output class 1

## Input Is Population Normal (%) at least 80%? Consider Oc1cccc(-c2nc(N3CCOCC3)c3oc4ncccc4c3n2)c1
## Output class 0

## Input Is Population Normal (%) at least 80%? Consider C=CC(=O)Nc1cc(-n2c(=O)ccc3cnc4ccc(-c5ccc(NS(C)(=O)=O)cc5)cc4c32)ccc1C
## Output class 0

###

System: U2OS
assay_protocol: Multiplex assay against U2OS
Type: toxicity, cell-based
measurement_parameters: human, 48 h, 1 µM, compound concentration 1 uM, replicate 2
outcome_measure: Population Mitotic Cells (%)
The reply should consist of the numeric value with the unit placed after it.

## Input For the record CC(/C=C1\SC(=S)N(CCCC(=O)Nc2ccc(C(=O)O)c(O)c2)C1=O)=C\c1ccccc1 , what value of Population Mitotic Cells (%) is listed for U2OS?
## Output 50%

## Input For the record C=CC(=O)Nc1cc(-n2c(=O)ccc3cnc4ccc(-c5ccc(NS(C)(=O)=O)cc5)cc4c32)ccc1C , what value of Population Mitotic Cells (%) is listed for U2OS?
## Output 90%

## Input For the record Cc1c(P(=S)(c2ccccc2)c2ccccc2)n2ccccc2[n+]1C/C=C/c1ccccc1.[Br-] , what value of Population Mitotic Cells (%) is listed for U2OS?
## Output 40%

## Input For the record CC(Cc1ccc(O)c(O)c1)C(C)Cc1ccc(O)c(O)c1 (stereo not drawn) [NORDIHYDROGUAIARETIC ACID] , what value of Population Mitotic Cells (%) is listed for U2OS?
## Output 80%

## Input For the record CCCCCNC(=N)N/N=C/c1c[nH]c2ccc(OC)cc12.O=C(O)/C=C\C(=O)O [TEGASEROD MALEATE] , what value of Population Mitotic Cells (%) is listed for U2OS?
## Output 64%

## Input For the record Cl.NC[C@@H]1O[C@H](C23CC4CC(CC(C4)C2)C3)Cc2c1ccc(O)c2O , what value of Population Mitotic Cells (%) is listed for U2OS?
## Output 42%

## Input For the record CN1C(=O)[C@@H](NC(=O)c2cc3ccccc3[nH]2)N=C(c2ccccc2)c2ccccc21 [DEVAZEPIDE] , what value of Population Mitotic Cells (%) is listed for U2OS?
## Output 50%

## Input For the record Oc1cccc(-c2nc(N3CCOCC3)c3oc4ncccc4c3n2)c1 , what value of Population Mitotic Cells (%) is listed for U2OS?
## Output 36%
